Answer each item with its documented pEC50.
test system: PD-L1 aAPC/CHO-K1 cells and Jurkat-PD-1-NFAT effector cells; experiment: Nuclear factor of activated T-cells (NFAT) assay; format: cell-based; conditions: Cricetulus griseus, CHO-K1; luminescence, 24 hours
Scale: pEC50 equals -log10([C]), with [C] in mol/L.

Incoming: Find the recorded pEC50 belonging to Cc1c(Nc2nc(C(F)F)nc3cc(CN4CCCC4)cnc23)cccc1-c1cccc(NC(=O)c2nc3c(n2C)CCN(CCC24CCC(C(=O)O)(CC2)C4)C3)c1Cl [Example 7] and report it.
Outgoing: 8.40

Incoming: pEC50 lookup needed for Cc1c(-c2nc3cc(CN4CC[C@@H](O)C4)cc(C#N)c3o2)cccc1-c1cccc(NC(=O)c2nc3c(n2C)CCN(CC24CCC(C(=O)O)(CC2)C4)C3)c1Cl [Example 267] , thanks.
Outgoing: 7.41

Incoming: I'd like to know its pEC50. The molecule in question is Cc1c(Nc2nc(C(F)F)nc3cc(CN4CC(O)C4)cnc23)cccc1-c1cccc(NC(=O)c2nc3c(n2C)CCN(CCC24CCC(C(=O)O)(CC2)C4)C3)c1Cl [Example 13]
Outgoing: 8.52

---

assay: In vivo pharmacokinetics in rats; parameters: species or system Sprague Dawley rats; settings: male, Sprague-Dawley, plasma; rat, 3.0 mg/kg PO, cassette dosing
Kindly return rule met if reported Cmax is no lower than 200 nM; return rule not met if it is lower.

Incoming: API: above_or_equal(metric=Cmax, cutoff=200 nM) for item Cc1c(-c2nc3cc(CN4CC[C@@H](O)C4)cc(C#N)c3o2)cccc1-c1cccc(NC(=O)c2nc3c(n2C)CCN(CC24CCC(C(=O)O)(CC2)C4)C3)c1Cl
Outgoing: rule not met

Incoming: Is the recorded value of Cmax equal to or greater than 200 nM for this compound? Cc1c(NC(=O)c2nc3c(n2C)CCN(CCC24CCC(C(=O)O)(CC2)C4)C3)cccc1-c1cccc(Nc2nc(C(F)F)nc3cc(CN4CC[C@@H](O)C4)cnc23)c1C
Outgoing: rule met

Incoming: Would you say Cc1c(Nc2nc(C(F)F)nc3cc(CN4CC[C@@](C)(O)C4)cnc23)cccc1-c1cccc(NC(=O)c2nc3c(n2C)CCN(CCC24CCC(C(=O)O)(CC2)C4)C3)c1Cl shows Cmax at minimum 200 nM?
Outgoing: rule not met

Incoming: Is the recorded value of Cmax equal to or greater than 200 nM for this compound? Cc1c(-c2nc3cc(CN4CC[C@@H](O)C4)cc(C#N)c3o2)cccc1-c1cccc(NC(=O)c2nc3c(n2C)CCN(CCC2CCC(C(=O)O)CC2)C3)c1Cl (some centres unmarked)
Outgoing: rule not met

Incoming: Is reported Cmax greater than or equal to 200 nM here: Cc1c(NC(=O)c2nc3c(n2C)CCN(CC24CCC(C(=O)O)(CC2)C4)C3)cccc1-c1cccc(NC(=O)c2nc3c(n2C)CCN(C)C3)c1Cl
Outgoing: rule met

Incoming: Check the entry Cc1c(NC(=O)c2nc3c(n2C)CCN(CCC24CCC(C(=O)O)(CC2)C4)C3)cccc1-c1cccc(Nc2nc(C(F)F)nc3cc(CN4CC[C@@](C)(O)C4)cnc23)c1C : does Cmax equal or exceed 200 nM?
Outgoing: rule not met

Incoming: Decide: is the reported value of Cmax for CN1CCc2c(nc(C(=O)Nc3cccc(-c4cccc(NC(=O)c5nc6c(n5C)CCN(CC57CCC(C(=O)O)(CC5)C7)C6)c4Cl)c3Cl)n2C)C1 equal to or greater than 200 nM?
Outgoing: rule met

Incoming: Decide: Cmax of Cc1c(Nc2nc(C(F)F)nc3cc(CN4CC[C@@H](O)C4)cnc23)cccc1-c1cccc(NC(=O)c2nc3c(n2C)CCN(CCC24CCC(C(=O)O)(CC2)C4)C3)c1Cl >= 200 nM?
Outgoing: rule not met

---

target: PD-1/PD-L1 (Homo sapiens (Human)); assay: Homogeneous Time-Resolved Fluorescence (HTRF) PD-1/PD-L1 binding assay; conditions: recombinant human PD-1 and PD-L1
So I've got a bunch of molecules here, and I need their pIC50 values.
// pIC50 is dimensionless: -log10 of concentration (M)

Incoming: Which value of pIC50 has been reported for CN1CCc2c(nc(C(=O)Nc3cccc(-c4cccc(NC(=O)c5nc6c(n5C)CCN(CC57CCC(C(=O)O)(CC5)C7)C6)c4Cl)c3Cl)n2C)C1 in the records?
Outgoing: 8.08

Incoming: Consider the molecule CC(C)N1CCc2c(nc(C(=O)Nc3cccc(-c4cccc(NC(=O)c5nc6c(n5C)CCN(CC57CCC(C(=O)O)(CC5)C7)C6)c4Cl)c3Cl)n2C)C1 [Example 177, reference compound] and give its measured pIC50.
Outgoing: 8.82

Incoming: Recorded pIC50 of Cn1c(C(=O)Nc2cccc(-c3cccc(NC(=O)c4nc5c(n4C)CCN(C4CCC4)C5)c3Cl)c2Cl)nc2c1CCN(CC13CCC(C(=O)O)(CC1)C3)C2 [Example 178, reference compound] , please.
Outgoing: 8.72

Incoming: Return reported pIC50; argument: Cc1c(Nc2nc(C(F)F)nc3cc(CN4C[C@H](O)C[C@H]4C)cnc23)cccc1-c1cccc(NC(=O)c2nc3c(n2C)CCN(CCC24CCC(C(=O)O)(CC2)C4)C3)c1Cl
Outgoing: 8.82

Incoming: Query: pIC50; subject: Cn1c(C(=O)Nc2cccc(-c3cccc(NC(=O)c4nc5c(n4C)CCN(C4CCOCC4)C5)c3Cl)c2Cl)nc2c1CCN(CC13CCC(C(=O)O)(CC1)C3)C2 [Example 179, reference compound]
Outgoing: 7.74

---

tested on: PD-L1 aAPC/CHO-K1 cells and Jurkat-PD-1-NFAT effector cells; test: Nuclear factor of activated T-cells (NFAT) assay; assay type: cell-based; conditions: Cricetulus griseus, CHO-K1; luminescence, 24 hours
Recorded metric: EC50 (nM)
Answer format: numeric, nM implied, no suffix.

Incoming: // lookup EC50 for CCN1CCc2c(nc(C(=O)Nc3cccc(-c4cccc(NC(=O)c5nc6c(n5C)CCN(CC57CCC(C(=O)O)(CC5)C7)C6)c4Cl)c3Cl)n2C)C1 [Example 176, reference compound]
Outgoing: 122

Incoming: If you can, please state the reported EC50 value of CC(C)N1CCc2c(nc(C(=O)Nc3cccc(-c4cccc(NC(=O)c5nc6c(n5C)CCN(CC57CCC(C(=O)O)(CC5)C7)C6)c4Cl)c3Cl)n2C)C1 [Example 177, reference compound] .
Outgoing: 31

Incoming: Sample Cc1c(Nc2nc(C(F)F)nc3cc(CN4C[C@H](O)C[C@@H]4C)cnc23)cccc1-c1cccc(NC(=O)c2nc3c(n2C)CCN(CCC24CCC(C(=O)O)(CC2)C4)C3)c1Cl [Example 10] — what was its EC50?
Outgoing: 4

Incoming: What does the data say about its EC50? Entry: Cc1c(Nc2nc(C(F)F)nc3cc(CN4CC[C@](C)(O)C4)cnc23)cccc1-c1cccc(NC(=O)c2nc3c(n2C)CCN(CCC24CCC(C(=O)O)(CC2)C4)C3)c1Cl [Example 4]
Outgoing: 4

Incoming: Any idea what its EC50 is? The compound is Cc1c(NC(=O)c2nc3c(n2C)CCN(CC24CCC(C(=O)O)(CC2)C4)C3)cccc1-c1cccc(NC(=O)c2nc3c(n2C)CCN(C)C3)c1Cl [Example 102]
Outgoing: 76

Incoming: Which EC50 value belongs to Cn1c(C(=O)Nc2cccc(-c3cccc(NC(=O)c4nc5c(n4C)CCN(C4CCC4)C5)c3Cl)c2Cl)nc2c1CCN(CC13CCC(C(=O)O)(CC1)C3)C2 [Example 178, reference compound] ?
Outgoing: 82

Incoming: Quick one: EC50 for C[C@@H](O)CN1CCc2c(nc(C(=O)Nc3cccc(-c4cccc(NC(=O)c5nc6c(n5C)CCN(CC57CCC(C(=O)O)(CC5)C7)C6)c4Cl)c3Cl)n2C)C1 [Example 182, reference compound] ?
Outgoing: 30

Incoming: Any idea what its EC50 is? The compound is Cc1c(Nc2nc(C(F)F)nc3cc(CN4CC[C@@H](O)C4)cnc23)cccc1-c1cccc(NC(=O)c2nc3c(n2C)CCN(CCC24CCC(C(=O)O)(CC2)C4)C3)c1Cl [Example 1]
Outgoing: 2

Incoming: What value of EC50 has been reported for the following compound? Cc1c(Nc2nc(C(F)F)nc3cc(CN4C[C@@H](O)C[C@H]4C)cnc23)cccc1-c1cccc(NC(=O)c2nc3c(n2C)CCN(CCC24CCC(C(=O)O)(CC2)C4)C3)c1Cl [Example 12]
Outgoing: 41

Incoming: Given Cc1c(NC(=O)c2nc3c(n2C)CCN(C)C3)cccc1-c1cccc(NC(=O)c2nc3c(n2C)CCN(CC24CCC(C(=O)O)(CC2)C4)C3)c1Cl [Example 119, reference compound] , state its recorded EC50.
Outgoing: 82

---

For each record, write down the corresponding IC50.
target: PD-1/PD-L1 (Homo sapiens (Human), UniProt Q9NZQ7); test: Homogeneous Time-Resolved Fluorescence (HTRF) PD-1/PD-L1 binding assay; conditions: recombinant human PD-1 and PD-L1
Sequence (Q9NZQ7 19-238): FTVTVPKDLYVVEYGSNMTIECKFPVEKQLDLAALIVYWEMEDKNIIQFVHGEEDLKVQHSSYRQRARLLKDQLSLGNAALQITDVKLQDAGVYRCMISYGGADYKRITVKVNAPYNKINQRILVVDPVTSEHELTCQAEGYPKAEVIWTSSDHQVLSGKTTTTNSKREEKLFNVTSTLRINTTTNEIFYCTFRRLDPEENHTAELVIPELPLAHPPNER

Incoming: Entry Cc1c(Nc2nc(C(F)F)nc3cc(CN4CCCC4)cnc23)cccc1-c1cccc(NC(=O)c2nc3c(n2C)CCN(CCC24CCC(C(=O)O)(CC2)C4)C3)c1Cl [Example 7] has what IC50?
Outgoing: 1.5 nM

Incoming: Quick check: IC50 of Cc1c(Nc2nc(C(F)F)nc3cc(CN4C[C@H](O)C[C@@H]4C)cnc23)cccc1-c1cccc(NC(=O)c2nc3c(n2C)CCN(CCC24CCC(C(=O)O)(CC2)C4)C3)c1Cl [Example 10] ?
Outgoing: 1.5 nM

Incoming: Quick check: IC50 of Cc1c(NC(=O)c2nc3c(n2C)CCN(CC24CCC(C(=O)O)(CC2)C4)C3)cccc1-c1cccc(NC(=O)c2nc3c(n2C)CCN(C)C3)c1Cl [Example 102] ?
Outgoing: 2.4 nM

Incoming: Which IC50 is reported for this compound? Cc1c(-c2nc3cc(CN4CC[C@@H](O)C4)cc(C#N)c3o2)cccc1-c1cccc(NC(=O)c2nc3c(n2C)CCN(CCC2CCC(C(=O)O)CC2)C3)c1Cl (some centres unmarked) [Example 265]
Outgoing: 2.3 nM

Incoming: Name the reported IC50 value associated with the compound Cc1c(Nc2nc(C(F)F)nc3cc(CN4CC(O)C4)cnc23)cccc1-c1cccc(NC(=O)c2nc3c(n2C)CCN(CCC24CCC(C(=O)O)(CC2)C4)C3)c1Cl [Example 13]
Outgoing: 1.8 nM
